Parameter: IC50. Scope: all listed entries.
- Test target: Histone deacetylase 8 (Homo sapiens)
- Sequence (Q9BY41 whole entry): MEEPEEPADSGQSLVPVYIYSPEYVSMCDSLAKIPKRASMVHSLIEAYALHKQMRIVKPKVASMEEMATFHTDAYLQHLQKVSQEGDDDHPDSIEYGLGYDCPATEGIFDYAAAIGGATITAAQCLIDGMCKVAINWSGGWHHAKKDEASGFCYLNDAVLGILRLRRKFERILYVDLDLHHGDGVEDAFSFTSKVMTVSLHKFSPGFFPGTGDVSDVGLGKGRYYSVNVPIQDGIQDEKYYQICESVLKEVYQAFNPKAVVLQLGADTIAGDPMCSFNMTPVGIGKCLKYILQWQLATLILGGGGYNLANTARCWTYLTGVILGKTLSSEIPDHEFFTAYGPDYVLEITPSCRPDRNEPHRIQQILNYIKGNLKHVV

Entry smiles: Cc1ccc(C(=O)N[C@@H](Cc2ccc(OCc3ccccc3)cc2)C(=O)O)cc1
Test target: Histone deacetylase 8 (Homo sapiens)
IC50: > 1000 µM
//
Entry smiles: CC(=O)N[C@@H](Cc1ccc(OCCc2ccccc2)cc1)C(=O)NO
Test target: Histone deacetylase 8 (Homo sapiens)
IC50: 14.4 µM
//
Entry smiles: O=C(N[C@@H](Cc1ccc(OCc2ccccc2)cc1)C(=O)O)c1ccccc1
Test target: Histone deacetylase 8 (Homo sapiens)
IC50: 111 µM
//
Entry smiles: COC(=O)[C@H](Cc1ccc(OCc2ccccc2)cc1)NC(=O)c1ccc(C)cc1
Test target: Histone deacetylase 8 (Homo sapiens)
IC50: > 1000 µM
//
Entry smiles: COC(=O)[C@H](Cc1ccc(OCCc2ccccc2)cc1)NS(=O)(=O)c1ccc(C)cc1
Test target: Histone deacetylase 8 (Homo sapiens)
IC50: 962 µM
